Please provide measured max activity for the entries that follow.
ASSAY NAME: inhibitors of Toxoplasma growth in IFN-γ-primed HeLa – cell-based, ME49Luc, luciferase, 72 h, dose response (AID 1259418)
EXPERIMENTAL PARAMETERS: T. gondii ME49Luc in IFN-y HeLa, active compounds read low, -100% = high-dose IFN-γ control wells; at 19.5 µM unless noted
In all, about 3,400 compounds went through this assay and about 840 (25%) were called active. Not shown: some 11% with an inconclusive outcome. These entries were drawn from the full list. Potency and affinity values are given separately.

max activity lookup needed for COc1ccc2c(c1)NC1(CCN(C(=O)c3ccc(C)c(C)c3)CC1)c1cccn1-2 , thanks. -9.14% [at 2.6 µM] (inactive)

Given the entry N#Cc1cccc(-c2ccc3c(c2)[C@H]2[C@H](CCN2Cc2ccc4c(c2)OCO4)[C@H](CO)N3)c1 , report its measured max activity. 17.9% [at 10 µM] (inactive)

max activity lookup needed for Cc1cccc(-c2nc(Cn3nnc(-c4nc(-c5ccc(OC(F)(F)F)cc5)no4)c3C)c(C)o2)c1 , thanks. -4.39% [at 0.35 µM] (inactive)

Endpoint output: max activity of CCc1ccc(S(=O)(=O)N2CCc3nc(-c4cccc(OC)c4)sc3C2)cc1 . Value? -5.58% [at 5 µM] (inactive)

What value of measured max activity is listed for Cc1nc(CCNC(=O)[C@H]2CCCN2S(=O)(=O)c2ccc3c(c2)CCCC3)cs1 ? 26.6% [at 0.35 µM] (inactive)

Give the measured max activity of COc1ccc(C(=O)/C=C/c2cc(C(=O)O)cc3c2OCOC3)c(O)c1 . 24.8% [at 10 µM] (inactive)

Recorded max activity for CCc1ccccc1NC(=O)Nc1ccc(-c2nc(-c3ccc(C)cc3)co2)cc1 , please? -15.7% [at 0.68 µM] (inactive)

Tell me the measured max activity of N#Cc1cccc(-c2ccc3c(c2)[C@H]2[C@H](CCN2Cc2ccc4c(c2)OCO4)[C@@H](CO)N3)c1 , please. 21.2% [at 10 µM] (inactive)

Consider the compound CCS(=O)(=O)N1CCC(C(=O)NCCc2csc(-c3cccs3)n2)CC1 and give its measured max activity. -17.6% (inactive)

###

Give measured max activity for each item. Keep answers brief.
ASSAY NAME: inhibitors of Toxoplasma growth in IFN-γ-primed HeLa – cell-based, ME49Luc, luciferase, 72 h, dose response (AID 1259418)
EXPERIMENTAL PARAMETERS: T. gondii ME49Luc in IFN-y HeLa, active compounds read low, -100% = high-dose IFN-γ control wells; at 19.5 µM unless noted
Screen size: about 3,400 compounds; about 840 (25%) were called active. Not shown: some 11% with an inconclusive outcome. The list is a sample of the results. Measured potencies and affinities stand elsewhere.

Entry Cc1ccc(S(=O)(=O)N2CCC3(CC2)NCCN=C3NCc2ccc(F)c(Cl)c2)c(C)c1 : reported max activity = ? 14% [at 5 µM] (inactive)

max activity lookup needed for Cc1ccc(-c2coc(-c3ccc(NC(=O)Cc4cccs4)cc3)n2)cc1 , thanks. -53.8% [at 0.68 µM] (inactive)

max activity for CCc1nc(OCC(=O)NCc2ccc3c(c2)OCO3)c2ccccc2n1 ? 11.9% [at 0.35 µM] (inactive)

What measured max activity goes with COCC(=O)N1CC(=O)N2[C@H](CO)[C@@H](c3ccc(C#CC4CC4)cc3)[C@@H]2C1 ? 39.9% (inactive)

Please look up its max activity: O=S(=O)(c1ccc2c(c1)CCCC2)N1CCC2(CC1)NCCN=C2NCc1ccc2c(c1)OCO2 10.2% (inactive)

Return reported max activity; argument: Cc1ccccc1C(=O)Nc1ccc(-c2nc(-c3ccccc3)co2)cc1 95.8% [at 10 µM] (inactive)

Which max activity is reported for this molecule? O=C(CCC1Nc2c3ccccc3nc(=S)n2C1=O)NC1CC1 (stereo not given) -17.9% [at 1.35 µM] (inactive)

What measured max activity goes with COc1ccc(NC(=O)COc2nc(C)nc3ccccc23)cc1 ? 19.3% [at 0.68 µM] (inactive)

Find the recorded max activity belonging to COCCN1CCc2c(cnc(-c3cccnc3)c2C(=O)O)C1 and report it. 17.7% [at 2.6 µM] (inactive)

State the recorded max activity for this entry: O=C(CC1N=C2c3ccccc3N=C(SCc3cc(=O)n4cc(Cl)ccc4n3)N2C1=O)NC1CCCCC1 (stereo not given) 36.6% [at 10 µM] (inactive)

Give the measured max activity of Cc1ccc(C2=NC3(CCN(CC(=O)Nc4cccc(C)c4)CC3)NC2=O)cc1 . -9.18% [at 5 µM] (inactive)

max activity for Cc1nc(CCNC(=O)C2CCN(S(=O)(=O)c3ccc(F)c(Cl)c3)CC2)cs1 ? 8.69% [at 5 µM] (inactive)

max activity for COc1ccccc1CN1CCc2nc(SCc3nc(-c4cccc(C)c4)oc3C)[nH]c(=O)c2C1 ? 14.5% [at 0.35 µM] (inactive)

State the recorded max activity for this entry: COc1cc(C(=O)Nc2ccc(-c3nc(-c4ccccc4)co3)cc2)cc(OC)c1OC -19.1% [at 0.16 µM] (inactive)

// lookup max activity for O=C(CC1N=C2c3ccccc3N=C(SCc3cc(=O)n4ccccc4n3)N2C1=O)NCc1ccc2c(c1)OCO2 (stereo not given) 49.3% (inactive)

So what does the record say about max activity for COc1ccc(-c2nc(Nc3ccccc3C)c3ccccc3n2)cc1 ? -9.66% [at 10 µM] (inactive)

What measured max activity goes with COc1ncccc1NC(=O)c1cc(-c2cnc(N3CCCC3)nc2)cn1CC1CC1 ? 6% (inactive)

Entry COc1ccc(-c2nc(Nc3cccc(SC)c3)c3ccccc3n2)cc1 : reported max activity = ? 8.11% [at 0.35 µM] (inactive)

# max activity lookup, item COc1cccc(CC(=O)Nc2ccc(-c3nc(-c4cc(C)ccc4C)co3)cc2)c1 -7.87% (inactive)

What value of measured max activity is listed for Cc1ccc(S(=O)(=O)N2CC[C@@H]3[C@H]2c2cc(-c4cccc(C(=O)N(C)C)c4)ccc2N[C@@H]3CO)cc1 ? 21.6% [at 10 µM] (inactive)

Bench note: what max activity did CCC(C(=O)N1CCC2(CC1)Nc1cc(OC)ccc1-n1cccc12)c1ccccc1 (stereo not given) show? 9.09% [at 0.35 µM] (inactive)

For the molecule shown here, Cc1oc(-c2ccccc2)nc1Cn1nnc(-c2nc(-c3ccccc3Cl)no2)c1C , give the reported max activity. 7.39% (inactive)

Given COc1ccc(OC)c(S(=O)(=O)N2CCC[C@@H]2C(=O)NCCc2csc(C)n2)c1 , state its recorded max activity. 4.67% (inactive)

Find the recorded max activity belonging to Cc1[nH]c2ccccc2c1C(=O)C(=O)NC1CC(=O)N(c2cccc(F)c2)C1 (stereo not given) and report it. 13.3% [at 0.35 µM] (inactive)

Fill blank: measured max activity of the molecule Cc1[nH]c2ccccc2c1C(=O)C(=O)NC1CC(=O)N(c2ccccc2)C1 (stereo not given) is ____. 12.7% [at 2.6 µM] (inactive)

Record request: max activity value, item COCCn1cc2c(n1)C(CNC(=O)CS(C)(=O)=O)OCC2 (stereo not given) 15.6% (inactive)

For COc1ccc(-c2nc(Cn3c(=O)c4c(C)cc(C)nc4n(-c4ccccc4)c3=O)c(C)o2)c(OC)c1 , what is its reported max activity? 5.72% [at 2.6 µM] (inactive)

Which max activity value belongs to COCC(=O)N1[C@H](C#N)[C@H](c2ccc(C#Cc3ccccc3F)cc2)[C@H]1CO ? -13.1% [at 10 µM] (inactive)

Given CCOc1ccc(-c2nc(Cn3c(=O)c4c(C)cc(C)nc4n(-c4ccccc4)c3=O)c(C)o2)cc1 , state its recorded max activity. 8.31% [at 0.16 µM] (inactive)

Item Cc1nc(OCC(=O)Nc2ccc(Cl)cc2F)c2ccccc2n1 has what recorded max activity? -13% [at 0.16 µM] (inactive)

Given the entry CCOc1ccc(-c2nc3c(s2)CN(S(=O)(=O)c2ccc(C(C)C)cc2)CC3)cc1 , report its measured max activity. 12.8% (inactive)

Entry under review: Cc1ccc(NC(=O)Nc2ccc(-c3nc(-c4ccc(C)cc4C)co3)cc2)cc1 . Reported max activity? 46.2% (inactive)

Please look up its max activity: CCc1ccccc1NC(=O)CN1CCC2(CC1)N=C(c1ccc(F)cc1)C(=O)N2 -11.7% [at 0.35 µM] (inactive)

What does the data say about its max activity? Entry: COc1cc(NC(=O)COc2nc(C)nc3ccccc23)cc(OC)c1 -12.3% [at 0.35 µM] (inactive)

Given the molecule CN1C(=O)CCc2cc(NC(=O)c3cccnc3)ccc21 , what is its reported max activity? -16.3% [at 0.16 µM] (inactive)

Form field: reported max activity of Cc1ccc(-c2coc(-c3ccc(NC(=O)c4ccccc4C)cc3)n2)cc1 104% (inactive)

Could you share which max activity value was measured for CC(C)Cc1ccc(S(=O)(=O)N2CCC3(CC2)NCCN=C3NCc2ccc3c(c2)OCO3)cc1 ? 12.4% [at 10 µM] (inactive)

Given the molecule Cc1oc(-c2cccc(Cl)c2)nc1Cn1nnc(-c2nc(-c3ccccc3)no2)c1C , what is its reported max activity? 25.3% (inactive)

GET /values?readout=max activity&item= Cc1cnc(N2CCC3(CCC(CC(=O)N4CC=CC4)CC3)CC2)nc1 19.8% [at 10 µM] (inactive)

# lookup: max activity of Cc1nc(OCC(=O)Nc2ccc3c(c2)OCO3)c2ccccc2n1 12.1% [at 5 µM] (inactive)
